biological target: ROCK2 (Homo sapiens (Human), UniProt O75116); experiment: Z'Lyte assay, ROCK2 inhibition at a single concentration; assay type: biochemical; conditions: read-out: % inhibition (ROCK2) 1 uM, 1 uM
Sequence (O75116 whole entry): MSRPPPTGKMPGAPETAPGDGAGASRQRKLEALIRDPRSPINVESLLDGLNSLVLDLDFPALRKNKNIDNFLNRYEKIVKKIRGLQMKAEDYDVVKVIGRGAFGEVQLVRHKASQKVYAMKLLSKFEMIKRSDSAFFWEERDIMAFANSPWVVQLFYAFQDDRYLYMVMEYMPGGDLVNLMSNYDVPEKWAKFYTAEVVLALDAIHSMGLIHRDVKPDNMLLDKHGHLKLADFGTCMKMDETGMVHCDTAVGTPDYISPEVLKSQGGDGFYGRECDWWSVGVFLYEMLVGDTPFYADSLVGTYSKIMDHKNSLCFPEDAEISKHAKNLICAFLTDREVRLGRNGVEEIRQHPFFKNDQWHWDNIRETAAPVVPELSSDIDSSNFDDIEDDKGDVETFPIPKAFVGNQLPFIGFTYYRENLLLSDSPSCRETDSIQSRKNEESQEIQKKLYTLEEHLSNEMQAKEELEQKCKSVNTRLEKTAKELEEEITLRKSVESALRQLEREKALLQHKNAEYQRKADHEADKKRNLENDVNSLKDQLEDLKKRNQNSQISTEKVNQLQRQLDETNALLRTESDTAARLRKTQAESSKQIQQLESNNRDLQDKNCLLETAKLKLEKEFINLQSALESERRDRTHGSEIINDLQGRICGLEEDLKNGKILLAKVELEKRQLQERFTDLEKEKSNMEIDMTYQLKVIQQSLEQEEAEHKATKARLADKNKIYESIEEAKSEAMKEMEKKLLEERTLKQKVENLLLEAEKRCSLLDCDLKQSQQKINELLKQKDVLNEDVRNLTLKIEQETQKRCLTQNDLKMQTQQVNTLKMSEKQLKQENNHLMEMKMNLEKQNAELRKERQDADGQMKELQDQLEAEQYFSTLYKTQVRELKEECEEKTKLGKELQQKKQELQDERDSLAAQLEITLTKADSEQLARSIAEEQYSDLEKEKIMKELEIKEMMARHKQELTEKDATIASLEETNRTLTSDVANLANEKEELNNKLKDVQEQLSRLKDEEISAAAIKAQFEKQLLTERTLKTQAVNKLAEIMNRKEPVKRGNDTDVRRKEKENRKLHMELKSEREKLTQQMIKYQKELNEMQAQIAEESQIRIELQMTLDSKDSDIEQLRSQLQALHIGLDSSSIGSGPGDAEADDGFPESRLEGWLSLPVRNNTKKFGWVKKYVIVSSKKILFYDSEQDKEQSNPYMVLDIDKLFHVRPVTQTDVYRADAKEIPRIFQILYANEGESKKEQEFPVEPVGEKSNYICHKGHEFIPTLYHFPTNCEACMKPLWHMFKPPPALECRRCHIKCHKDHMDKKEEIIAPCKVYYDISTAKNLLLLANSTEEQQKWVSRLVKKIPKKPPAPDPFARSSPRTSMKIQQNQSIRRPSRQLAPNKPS
readout: inhibition at 1 µM (%)

# example entries with known answers
{"molSmiles": "CC(C)(C)OC(=O)NCCCOc1cccc(-c2cccc(NC(=O)N3CC=C(c4ncnc5[nH]cc(C6CC6)c45)CC3)c2)c1", "readout": "inhibition at 1 µM", "resultValue": 7}
{"molSmiles": "Cc1c[nH]c2ncnc(C3=CCN(C(=O)Nc4cccc(Oc5cccc(F)c5)c4)CC3)c12", "readout": "inhibition at 1 µM", "resultValue": 13}
{"molSmiles": "Cc1c[nH]c2ncnc(C3=CCN(C(=O)Nc4cccc(Oc5cccc(O)c5)c4)CC3)c12", "readout": "inhibition at 1 µM", "resultValue": 27}
{"molSmiles": "CC(C)(C)OC(=O)NCCCOc1cccc(-c2cccc(NC(=O)N3CC=C(c4ncnc5[nH]c6c(c45)CCC6)CC3)c2)c1", "readout": "inhibition at 1 µM", "resultValue": 4}
{"molSmiles": "CC(=O)Nc1cccc(Oc2cccc(NC(=O)N3CC=C(c4ncnc5[nH]cc(C)c45)CC3)c2)c1", "readout": "inhibition at 1 µM", "resultValue": 37}

[P] Cc1c[nH]c2ncnc(C3=CCN(C(=O)Nc4cccc(Oc5cccc(Cl)c5)c4)CC3)c12
[Q] O=C(Nc1cccc(F)c1)N1CC=C(c2ncnc3[nH]c4c(c23)CCCCC4)CC1
Inquiry: Which of the two gives a bigger number for inhibition at 1 µM: P or Q ? Refer to your chosen entry by its label in the reply.
Reply text: P
(P: 46%, Q: -7%)
